- System: Pasteurella multocida 60A
- Procedure summary: MIC, broth-dilution microtiter test, Pasteurella multocida 60A
- Format: cell-based
- Experimental parameters: Pasteurella multocida 60A; avian isolate; broth-dilution microtiter; read-out: MIC
- Text: The MIC's in Table X were obtained using conventional broth-dilution microtiter tests.
Readout type: MIC (µg/mL)

[
  {
    "Molecule": "CCC1OC(=O)CC(O)C(C)C(OC2OC(C)C(OC3CC(C)(O)C(O)C(C)O3)C(N(C)C)C2O)C(CCI)CC(C)C(=O)C=CC(C)=CC1COC1OC(C)C(O)C(O)C1OC (stereo not shown) [Compound 52, 20-DH-DO-20-Iodomacrocin]",
    "Result operator": ">",
    "Measured result": 50
  },
  {
    "Molecule": "CCC1OC(=O)CC(O)C(C)C(OC2OC(C)C(O)C(N(C)C)C2O)C(CCCl)CC(C)C(=O)C=CC(C)=CC1COC1OC(C)C(O)C(OC)C1OC (stereo not shown) [Compound 21, 20-DH-DO-20-Chlorodesmycosin]",
    "Result operator": "=",
    "Measured result": 6.25
  },
  {
    "Molecule": "CCC1OC(=O)CC(O)C(C)C(OC2OC(C)C(O)C(N(C)C)C2O)C(CCOc2ccc(C(=O)c3ccccc3)cc2)CC(C)C(=O)C=CC(C)=CC1COC1OC(C)C(O)C(OC)C1OC (stereo not shown) [Compound 37, 20-DH-20-O-(p-Benzoylphenyl)desmycosin]",
    "Result operator": "=",
    "Measured result": 25
  },
  {
    "Molecule": "CCC1OC(=O)CC(O)C(C)C(OC2OC(C)C(OC3CC(C)(O)C(O)C(C)O3)C(N(C)C)C2O)C(CCNC(=O)Cc2ccccc2)CC(C)C(=O)C=CC(C)=CC1COC1OC(C)C(O)C(OC)C1OC (stereo not shown) [Compound 3]",
    "Result operator": ">",
    "Measured result": 50
  }
]

====

Readings of MIC for the listed compounds
- Tested on: Staphylococcus aureus X400
- Procedure summary: MIC, standard agar-dilution assay, Staphylococcus aureus X400
- Assay type: cell-based
- Experimental parameters: Staphylococcus aureus X400; methicillin-resistant strain; agar dilution

[
  {
    "Compound": "CCC(=O)OC1C(C)OC(OC2C(CCN3C(=O)c4ccccc4C3=O)CC(C)C(=O)C=CC(C)=CC(COC3OC(C)C(O)C(OC)C3OC)C(CC)OC(=O)CC(O)C2C)C(OC(=O)CC)C1N(C)C (centres unmarked)",
    "MIC, µg/mL": 1
  },
  {
    "Compound": "CCOC(=O)NN(CCC1CC(C)C(=O)C=CC(C)=CC(COC2OC(C)C(O)C(OC)C2OC)C(CC)OC(=O)CC(O)C(C)C1OC1OC(C)C(O)C(N(C)C)C1O)C(=O)OCC (centres unmarked)",
    "MIC, µg/mL": 1
  },
  {
    "Compound": "CCC1OC(=O)CC(O)C(C)C(OC2OC(C)CC(N(C)C)C2O)C(CCOc2ccccc2)CC(C)C(=O)C=CC(C)=CC1COC1OC(C)C(O)C(OC)C1OC (centres unmarked)",
    "MIC, µg/mL": 0.25
  },
  {
    "Compound": "CCC(=O)OC1C(OC2C(CCN3C(=O)c4ccccc4C3=O)CC(C)C(=O)C=CC(C)=CC(COC3OC(C)C(O)C(OC)C3OC)C(CC)OC(=O)CC(O)C2C)OC(C)C(O)C1N(C)C (centres unmarked)",
    "MIC, µg/mL": 0.5
  },
  {
    "Compound": "CCC1OC(=O)CC(O)C(C)C(OC2OC(C)C(O)C(N(C)C)C2O)C(CCNC(=O)COc2ccccc2)CC(C)C(=O)C=CC(C)=CC1COC1OC(C)C(O)C(OC)C1OC (centres unmarked) [Compound 51c]",
    "MIC, µg/mL": 0.5
  }
]

Cited source for all entries: patent US4443436A
